Assay summary: Plasma concentration in Sprague-Dawley rat at 50 mg/kg, po measured at 0.5 hrs by LC-MS/MS analysis
Type: ADME, organism-based
Endpoint: concentration at 0.5 h
Show the value, then the unit it is measured in.

Q) Output concentration at 0.5 h of CCn1c(=O)[nH]c(=O)c2c1nc(Cc1cn3cc(C)sc3n1)n2CC1COC1
A) 5950 ng/mL

* * *

Assay summary: AUC (0 to infinitive) in Sprague-Dawley rat at 10 mg/kg, iv measured upto 1440 mins by LC-MS/MS analysis
Assay type: ADME, organism-based
Parameters: dose 10 mg/kg, time < 1440 min, route iv
Condition details: in vivo
Endpoint: AUC(0-inf) (ng·h/mL)
Enter your answer as a number in ng·h/mL; do not include the unit.

Q) Output AUC(0-inf) of CCn1c(=O)[nH]c(=O)c2c1nc(Cc1cn3cc(C)sc3n1)n2CC1COC1
A) 5030
